Kn,app (H-Val-NH2 as nucleophile): recorded values
Measured on: carboxypeptidase Y (CPD-Y) variant N51Q (Asn51 replaced with glutamine) (Saccharomyces cerevisiae, UniProt P00729, N162Q)
Construct: made in house; host or cells: S. cerevisiae W2579 (secreted)
Sequence (P00729 112-532 N162Q): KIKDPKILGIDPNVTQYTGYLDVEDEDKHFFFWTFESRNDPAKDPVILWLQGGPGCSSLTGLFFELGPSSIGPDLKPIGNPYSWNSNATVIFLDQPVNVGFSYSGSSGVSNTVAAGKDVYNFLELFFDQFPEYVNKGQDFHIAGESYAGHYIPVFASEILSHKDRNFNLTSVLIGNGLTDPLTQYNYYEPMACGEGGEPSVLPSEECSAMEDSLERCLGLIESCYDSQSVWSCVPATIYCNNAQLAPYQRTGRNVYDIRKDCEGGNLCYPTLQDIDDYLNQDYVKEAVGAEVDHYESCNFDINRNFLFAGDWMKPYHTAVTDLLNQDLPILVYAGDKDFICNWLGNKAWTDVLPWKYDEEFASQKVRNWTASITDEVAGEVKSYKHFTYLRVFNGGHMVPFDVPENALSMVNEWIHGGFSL
Test description: Aminolysis; KN(app) of nucleophile
Type: biochemical, yeast
Particulars: Table VI; substance of the line is the substrate (leaving group varied), pH 7.5
The reply should be a number in mM, with the unit left off.

{"Cpd smiles": "C[C@H](NC(=O)C=Cc1ccco1)C(=O)OCc1ccccc1", "Unit name": "mM", "Measured number": 3.1}
{"Cpd smiles": "CC(C)[C@H](NC(=O)[C@H](C)NC(=O)C=Cc1ccco1)C(=O)O", "Unit name": "mM", "Measured number": 2.4}
{"Cpd smiles": "C[C@H](NC(=O)[C@H](C)NC(=O)C=Cc1ccco1)C(=O)O", "Unit name": "mM", "Measured number": 3.1}
{"Cpd smiles": "C[C@H](NC(=O)C=Cc1ccco1)C(=O)N[C@@H](Cc1ccccc1)C(=O)O", "Unit name": "mM", "Measured number": 3.1}

Next, consider the following molecule.
Value of Kn,app (H-Val-NH2 as nucleophile) reported for the molecule CC(C)C[C@H](NC(=O)[C@H](C)NC(=O)C=Cc1ccco1)C(=O)O is 2.4

Origin of measurements: patent US5945329A
